assay: Selectivity index, ratio of CC50 for MDCK cells to IC50 for oseltamivir-resistant influenza A virus H1N1 clinical isolate IAV/Tianjin Jinnan/15/2009 infected in MDCK cells; assay type: toxicity, cell-based; details: dog, read-out: Ratio CC50/IC50
Can you tell me selectivity ratio for the items I'm about to list?

selectivity ratio lookup needed for CC(=O)Nc1ccc2oc(-c3ccnc(C(=O)N4CCN([C@H](c5ccccc5)c5nnn(C(C)C)n5)CC4)c3)nc2c1 , thanks.
> 1430

selectivity ratio lookup needed for CCC(CC)n1nnc([C@H](c2ccc(F)cc2)N2CCN(C(=O)c3cc(-c4nc5cc(NC(C)=O)ccc5o4)ccn3)CC2)n1 , thanks.
> 104

selectivity ratio lookup needed for CC(=O)Nc1ccc2oc(-c3ccnc(C(=O)N4CCN([C@H](c5ccc(F)cc5)c5nnn(C(C)C)n5)CC4)c3)nc2c1 , thanks.
> 1430

selectivity ratio lookup needed for CCC(CC)n1nnc([C@@H](c2ccc(F)cc2)N2CCN(C(=O)c3cc(-c4nc5cc(NC(C)=O)ccc5o4)ccn3)CC2)n1 , thanks.
> 454

selectivity ratio lookup needed for CC(=O)Nc1ccc2oc(-c3ccnc(C(=O)N4CCN([C@H](c5ccc(F)cc5)c5nnn(CCC(C)C)n5)CC4)c3)nc2c1 , thanks.
> 136

selectivity ratio lookup needed for C=Cn1nnc([C@@H](c2ccc(F)cc2)N2CCN(C(=O)c3cc(-c4nc5cc(NC(C)=O)ccc5o4)ccn3)CC2)n1 , thanks.
> 196

selectivity ratio lookup needed for CC(=O)Nc1ccc2oc(-c3ccnc(C(=O)N4CCN([C@H](c5ccc(F)cc5)c5nnn(C6CCCC6)n5)CC4)c3)nc2c1 , thanks.
198
